Molecular target: EGFR (d746-750 (d19)/T790M) (Homo sapiens (Human), UniProt P00533, DEL746-750/T790M)
Sequence (P00533 other isoform, or with tags, fused parts or gaps T790M/del 1-668/del 746-750 limits assumed): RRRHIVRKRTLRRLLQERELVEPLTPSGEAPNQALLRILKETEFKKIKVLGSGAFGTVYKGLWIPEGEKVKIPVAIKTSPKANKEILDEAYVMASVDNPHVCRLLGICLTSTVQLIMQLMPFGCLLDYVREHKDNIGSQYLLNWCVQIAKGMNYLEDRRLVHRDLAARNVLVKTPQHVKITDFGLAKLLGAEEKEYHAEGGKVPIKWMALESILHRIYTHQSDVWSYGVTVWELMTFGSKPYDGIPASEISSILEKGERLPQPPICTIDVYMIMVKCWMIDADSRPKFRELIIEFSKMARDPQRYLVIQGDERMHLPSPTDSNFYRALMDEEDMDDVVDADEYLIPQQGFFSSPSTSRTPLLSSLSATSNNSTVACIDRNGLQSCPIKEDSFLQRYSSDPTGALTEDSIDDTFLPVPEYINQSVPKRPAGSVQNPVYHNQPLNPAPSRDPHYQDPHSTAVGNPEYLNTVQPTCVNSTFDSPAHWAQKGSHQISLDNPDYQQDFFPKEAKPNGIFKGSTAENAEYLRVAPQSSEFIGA
Assay: Inhibitory activity for EGFR (d746-750 (d19)/T790M) kinase
Details: ATP 5 μM
Description: 1.3 Screening for Inhibitory Activity for EGFR (d746-750 (d19)/T790M) Kinase A 50 ng/μL EGFR (d746-750/T790M, Carna) stock solution was diluted with a kinase buffer (50 mM HEPES, 10 mM MgCl2, 2 mM DTT, 1 mM EGTA, 0.01% Tween 20), and 6 μL of 1.67× working solution at 0.005 ng/μL (final concentration: 0.003 ng/μL) was added to each well. […]
pIC50: −log10 of the molar value.
ENDPOINT LABEL: pIC50

1: Cc1cc2cc(n1)-c1cnn(C)c1OCCC[C@@H](C1CC1)CN1/C(=N/C2=O)Nc2cc(NCCCCN(C)C)ccc21
2: Cc1cc2cc(n1)-c1cnn(C3CC3)c1OCCC[C@@H](C)CN1/C(=N/C2=O)Nc2cc(NC3CCN(C)CC3)ccc21
3: Cc1cc2cc(n1)-c1cnn(C)c1OCCC[C@@H](C1CC1)CN1/C(=N/C2=O)Nc2cc(NC(C)C3(C)COC3)ccc21 (stereo partly shown)
4: Cc1cc2cc(n1)-c1cnn(C3CC3)c1OCCC[C@@H](C)CN1/C(=N/C2=O)Nc2cc(N[C@@H]3CCOC3)ccc21
Request: Please list these in order of increasing pIC50. Thank you! Form field (ranking): labels in requested order.
Result: 3, 2, 4, 1
